Where do the numbers come from? From ChEMBL document CHEMBL4673352.

Assay: Volume of distribution at steady state in Han Wistar rat at 1.2 umol/kg, iv formulated as solution
Assay type: ADME, organism-based
Conditions: in vivo, dose 1.2 µmol/kg, read-out: Vdss
Provide the reported Vd of each item.
Give bare numbers, in L/kg.

Record excerpt, results attached:
MOLECULE	READOUT_UNIT	Vd
CC(=O)N[C@@H]1CCC[C@H](C(=O)Nc2cc(-c3cnn4c3CC(C)(C)C4)c(F)cn2)C1	L/kg	0.08
CC(=O)N[C@@H]1CCC[C@H](C(=O)Nc2cc(-c3cnn4c3CCCC4)c(Cl)cn2)C1	L/kg	0.75

Shift focus to the following entry.
Query :: Need Vd, item CC(=O)N[C@@H]1CCC[C@H](C(=O)Nc2cc(-c3cnn4c3CC(C)(C)C4)c(Cl)cn2)C1 [ZEMIRCICLIB]
Result :: 0.68

* * *

Experiment: Solubility of compound in pH 7.4 PBS buffer using crystalline form of sample
Format: physicochemical
ASSAY_ENDPOINT: solubility thermodynamic (µg/mL)
One number for each entry, in µg/mL.

Query :: Need solubility thermodynamic, item CC(=O)N[C@@H]1CCC[C@H](C(=O)Nc2cc(-c3cnn4c3CCCC4)c(Cl)cn2)C1
Result :: 94

* * *

Target: Glycogen synthase kinase-3 alpha (Homo sapiens, UniProt P49840)
Sequence (P49840 whole entry): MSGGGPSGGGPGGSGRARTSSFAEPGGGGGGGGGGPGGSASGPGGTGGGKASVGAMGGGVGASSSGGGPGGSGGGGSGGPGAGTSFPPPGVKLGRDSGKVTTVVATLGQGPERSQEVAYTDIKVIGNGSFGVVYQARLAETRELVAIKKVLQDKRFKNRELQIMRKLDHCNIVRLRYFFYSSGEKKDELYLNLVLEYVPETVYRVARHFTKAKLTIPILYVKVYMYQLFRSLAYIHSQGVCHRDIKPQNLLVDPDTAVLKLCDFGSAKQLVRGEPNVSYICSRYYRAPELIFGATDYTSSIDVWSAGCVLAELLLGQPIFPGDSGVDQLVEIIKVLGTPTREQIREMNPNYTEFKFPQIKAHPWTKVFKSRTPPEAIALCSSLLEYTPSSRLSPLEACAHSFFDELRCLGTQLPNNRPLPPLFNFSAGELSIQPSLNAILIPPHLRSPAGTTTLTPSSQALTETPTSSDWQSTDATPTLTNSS
ASSAY_ENDPOINT: pIC50
One number for each entry, as −log10 of the molar value.

Query :: Need pIC50, item CC(=O)N[C@@H]1CCC[C@H](C(=O)Nc2cc(-c3cnn4c3CC(C)(C)C4)c(Cl)cn2)C1
Result :: 6.73

* * *

Assay: Volume of distribution at steady state in Beagle dog at […], iv administered over 0.25 hrs formulated as solution in DMSO/Captisol
Type: ADME, organism-based, Canis lupus familiaris
Details: in vivo, dose 0.24 µmol/kg, read-out: Vdss
ASSAY_ENDPOINT: Vd at 0.25 h
Include the unit right after the number.

Query :: Need Vd at 0.25 h, item CC(=O)N[C@@H]1CCC[C@H](C(=O)Nc2cc(-c3cnn4c3CC(C)(C)C4)c(F)cn2)C1
Result :: 1.2 L/kg

* * *

Assay: Half-life in Beagle dog at 5.2 umol/kg, iv administered as 0.25 hrs infusion
Format: ADME, organism-based, Canis lupus familiaris
Details: in vivo, dose 5.2 µmol/kg
ASSAY_ENDPOINT: half-life (h)
Numbers only, in h.

Query :: Need half-life, item COc1cc(F)ccc1-c1ccnc(NC(=O)[C@H]2CCC[C@@H](NC(C)=O)C2)c1
Result :: 1

* * *

Test: Intrinsic clearance in human liver microsome
Type: ADME, microsomes
Details: liver microsomes, read-out: CLH
Provide the reported log10(microsomal CLint) of each item.
Note the log scale: values are log10 of microsomal CLint expressed in µL/min/mg.

Record excerpt, results attached:
COMPOUND	log10(microsomal CLint)
CC(=O)N[C@@H]1CCC[C@H](C(=O)Nc2cc(-c3cn[nH]c3CC(C)(C)CO)c(Cl)cn2)C1	1.38
CC(=O)N[C@@H]1CCC[C@H](C(=O)Nc2cc(-c3cnn4c3CC(C)(C)C4O)c(Cl)cn2)C1 (stereo partly drawn)	1.15
CC(=O)N[C@@H]1CCC[C@H](C(=O)Nc2cc(-c3cn[nH]c3CCCCO)c(Cl)cn2)C1	1.18

# batch: return log10(microsomal CLint) for each of the 4 compounds below
1. CC(=O)N[C@@H]1CCC[C@H](C(=O)Nc2cc(-c3cnn4c3CC(C)(C)C4)c(Cl)cn2)C1
2. CC(=O)N[C@@H]1CCC[C@H](C(=O)Nc2cc(-c3cnc(C)n3C(C)C)ccn2)C1
3. CC(=O)N[C@@H]1CCC[C@H](C(=O)Nc2cc(-c3cnc4n3CC(C)(C)C4)c(Cl)cn2)C1
4. CC(=O)N[C@@H]1CCC[C@H](C(=O)Nc2cc(-c3cnn4c3CCCC4)c(Cl)cn2)C1

Result ::
1. 1.70
2. 0.56
3. 1.80
4. 1.23

* * *

Provide the reported solubility of each item.
Assay: Solubility of compound in phosphate buffer at pH 7.4 using dried form of sample
Type: physicochemical
Settings: phosphate buffer, read-out: solubility
Answers are plain numbers, in µM.

Record excerpt, results attached:
CC(=O)N[C@@H]1CCC[C@H](C(=O)Nc2cc(-c3nnn4c3CCCC4)c(Cl)cn2)C1 530
CC1(C)Cc2c(-c3cc(NC(=O)[C@H]4C[C@@H](O)C4)ncc3Cl)cnn2C1 15
CC(=O)N[C@@H]1CCC[C@H](C(=O)Nc2cc(-c3cnn4c3CC(C)(C)C4)c(F)cn2)C1 550

Query :: Need solubility, item CC(=O)N[C@@H]1CCC[C@H](C(=O)Nc2cc(-c3cnn4ccccc34)c(Cl)cn2)C1
Result :: 45

* * *

Experiment: Half-life in mouse at 2.3 umol/kg, iv formulated as solution
Assay type: ADME, organism-based
Conditions: in vivo, dose 2.3 µmol/kg
ASSAY_ENDPOINT: half-life (min)
Give bare numbers, in min.

Query :: Need half-life, item CC(=O)N[C@@H]1CCC[C@H](C(=O)Nc2cc(-c3cnn4c3CC(C)(C)C4)c(Cl)cn2)C1
Result :: 10.8

* * *

Test: Volume of distribution at steady state in Beagle dog at 5.2 umol/kg, iv administered as 0.25 hrs infusion
Assay type: ADME, organism-based, Canis lupus familiaris
Settings: in vivo, dose 5.2 µmol/kg, read-out: Vdss
ASSAY_ENDPOINT: Vd (L/kg)
Numbers only, in L/kg.

Query :: Need Vd, item COc1cc(F)ccc1-c1ccnc(NC(=O)[C@H]2CCC[C@@H](NC(C)=O)C2)c1
Result :: 0.62

* * *

Experiment: Half-life in mouse at 5.2 umol/kg, iv formulated as solution
Assay type: ADME, organism-based
Conditions: in vivo, dose 5.2 µmol/kg
ASSAY_ENDPOINT: half-life (min)
One number for each entry, in min.

Query :: Need half-life, item COc1cc(F)ccc1-c1ccnc(NC(=O)[C@H]2CCC[C@@H](NC(C)=O)C2)c1
Result :: 15.6

* * *

Target: UniProt P50750
Experiment: Inhibition of CDK9 in human MCF7 cells assessed as reduction in RNA Polymerase 2 CTD phosphorylation at Ser2 residues measured after 6 hrs by immunofluorescence assay
Assay type: cell-based
ASSAY_ENDPOINT: IC50 (nM)
Give bare numbers, in nM.

COMPOUND	READOUT_UNIT	IC50
CC(=O)N[C@@H]1CCC[C@H](C(=O)Nc2cc(-c3cnn4c3CC(C)(C)C4)ccn2)C1	nM	150

# batch: return IC50 for each of the 5 compounds below
1. CC(=O)N[C@@H]1CCC[C@H](C(=O)Nc2cc(-c3cnn4c3CC(C)(C)C4)c(C#N)cn2)C1
2. CC(=O)N[C@@H]1CCC[C@H](C(=O)Nc2cc(-c3cnn4c3CCCC4)ccn2)C1
3. CC(=O)N[C@@H]1CCC[C@H](C(=O)Nc2cc(-c3cnn4c3CC(C)C4)c(Cl)cn2)C1 (stereo in doubt; 28)
4. CC(=O)N[C@@H]1CCC[C@H](C(=O)Nc2cc(-c3cnn4c3OCCC4)c(Cl)cn2)C1
5. CC(=O)N[C@@H]1CCC[C@H](C(=O)Nc2cc(-c3cnn4c3CCCCC4)c(Cl)cn2)C1

Result ::
1. 150
2. 520
3. 36
4. 350
5. 92

* * *

Biological target: Cyclin-dependent kinase 9 (Homo sapiens, UniProt P50750)
Sequence (P50750 whole entry): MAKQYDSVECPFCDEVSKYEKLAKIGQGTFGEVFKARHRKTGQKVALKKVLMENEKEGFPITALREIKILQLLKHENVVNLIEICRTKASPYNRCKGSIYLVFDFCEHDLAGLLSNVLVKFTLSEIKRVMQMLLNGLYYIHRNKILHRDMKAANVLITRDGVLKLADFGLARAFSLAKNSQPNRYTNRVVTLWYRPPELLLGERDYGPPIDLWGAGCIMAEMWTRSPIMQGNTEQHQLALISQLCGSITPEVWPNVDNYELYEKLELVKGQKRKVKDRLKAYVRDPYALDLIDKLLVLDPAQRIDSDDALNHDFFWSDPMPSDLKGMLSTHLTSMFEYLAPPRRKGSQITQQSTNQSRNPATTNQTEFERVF
Assay: Inhibition of CDK9 in human MCF7 cells assessed as reduction in RNA Polymerase 2 CTD phosphorylation at Ser2 residues measured after 6 hrs by immunofluorescence assay
Type: cell-based
ASSAY_ENDPOINT: pIC50
Numbers only, as −log10 of the molar value.

MOLECULE	ASSAY_ENDPOINT	EXPERIMENTAL_VALUE
CC(=O)N[C@@H]1CC[C@H](C(=O)Nc2cc(-c3cnn4c3CC(C)(C)C4)c(Cl)cn2)C1	pIC50	7.40
CC(=O)N[C@@H]1CCC[C@H](C(=O)Nc2cc(-c3cnn4c3CN(C)CC4)c(Cl)cn2)C1	pIC50	6.10
CC(=O)N[C@@H]1CCC[C@H](C(=O)Nc2cc(-c3cnn4c3CCC4)c(Cl)cn2)C1	pIC50	6.28
CC(=O)N[C@@H]1CCC[C@H](C(=O)Nc2cc(-c3cnc4n3CCC4)c(Cl)cn2)C1	pIC50	6.12
CC(=O)N[C@@H]1CCC[C@H](C(=O)Nc2cc(-c3cnn(C)c3C)c(Cl)cn2)C1	pIC50	6.36

# batch: return pIC50 for each of the 4 molecules below
1. CC(=O)N[C@@H]1CCC[C@H](C(=O)Nc2cc(-c3cnn4c3CC(C)(C)C4)c(F)cn2)C1
2. CC(=O)N[C@@H]1CCC[C@H](C(=O)Nc2cc(-c3cnn4c3CC(C)(C)CC4)c(F)cn2)C1
3. CC(=O)N[C@@H]1CCC[C@H](C(=O)Nc2cc(-c3cnn4c3CC(C)(C)C4O)c(Cl)cn2)C1 (stereo partly drawn)
4. CC(=O)N[C@@H]1CCC[C@H](C(=O)Nc2cc(-c3cnc4ccccn34)c(Cl)cn2)C1

Result ::
1. 7.60
2. 8.00
3. 6.77
4. 5.80

# batch: return pIC50 for each of the 3 molecules below
1. CC1(C)Cc2c(-c3cc(NC(=O)[C@H]4C[C@@H](O)C4)ncc3Cl)cnn2C1
2. CC(=O)N[C@@H]1CCC[C@H](C(=O)Nc2cc(-c3cnn4c3CCCC4)c(F)cn2)C1
3. CC(=O)N[C@@H]1CCC[C@H](C(=O)Nc2cc(-c3cnn4ccccc34)c(Cl)cn2)C1

Result ::
7.36
7.00
6.85
